Assay: in vitro
Conditions: dog
compounds and their reported CC50

Value lookup for CC50; key = CC(N)C12CC3CC(CC(C3)C1)C2 (stereo not drawn) [Rimantadine] 525 µM

Value lookup for CC50; key = NC12CC3CC(CC(C3)C1)C2 [Amantadine] > 1000 µM

Value lookup for CC50; key = CCC(CC)O[C@@H]1C=C(C(=O)O)C[C@H](N)[C@H]1NC(C)=O [Oseltamivir Carboxylate] > 100 µM

====

System: Punta Toro virus
Assay: Antiviral activity in Vero cells, Punta Toro virus
Format: cell-based
Conditions: read-out: EC50 Punta Toro virus
measurement.kind: EC50

Enter reported EC50 observed with Punta Toro virus for Nc1ncnc2c1ncn2C[C@H](O)CO [(S)-DHPA] > 250 µM

====

compounds and their reported Cytotoxicity Minimum cytotoxic concentration
Test system: MDCK cells
Conditions: microscopic alteration of cell morphology

Value lookup for Cytotoxicity Minimum cytotoxic concentration; key = CCC(CC)O[C@@H]1C=C(C(=O)O)C[C@H](N)[C@H]1NC(C)=O [Oseltamivir Carboxylate] >100 µM

Value lookup for Cytotoxicity Minimum cytotoxic concentration; key = CC(N)C12CC3CC(CC(C3)C1)C2 (stereo not shown) [Rimantadine] 1000 µM

Value lookup for Cytotoxicity Minimum cytotoxic concentration; key = NC12CC3CC(CC(C3)C1)C2 [Amantadine] >1000 µM

Value lookup for Cytotoxicity Minimum cytotoxic concentration; key = NC(=O)c1ncn([C@@H]2O[C@H](CO)[C@@H](O)[C@H]2O)n1 [Ribavirin] >100 µM

====

System: Influenza B
Assay: Anti-influenza B activity in MDCK cells
Type: cell-based
Details: Influenza B virus, read-out: Antiviral EC50 Influenza B Visual CPE Score
compounds and their reported EC50
Write the value in µM as a bare number.

# compound, reported.value
rows = [
    ("NC(=O)c1ncn([C@@H]2O[C@H](CO)[C@@H](O)[C@H]2O)n1", 9),
]

Now for a further compound.
Value lookup for EC50; key = CCC(CC)O[C@@H]1C=C(C(=O)O)C[C@H](N)[C@H]1NC(C)=O [Oseltamivir Carboxylate] 8
